src = paper PMC10466331

molecular target: recombinant human GAA (rhGAA, Myozyme) (Homo sapiens, UniProt P10253); construct: purchased Genzyme; test: competitive FluoPol-ABPP assay on rhGAA with TAMRA-ABP II; format: biochemical; conditions: library screen, 5 μM inhibitor, 25 nM ABP II;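 further: fluorescence polarization read at 540 nm excitation and 590 nm emission, background-corrected, normalized to uninhibited probe labelling as 100% and excess cyclosulfate as 0%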
Decide using GAA FP% (residual FP-signal): a value greater than or equal to 0.9% is y, a smaller one is n.

Threshold query (GAA FP% (residual FP-signal) >= 0.9%) on OC[C@@H]1[C@@H](O)[C@H](O)[C@@H](O)CN1CCCCCOCC12CC3CC(CC(C3)C1)C2 [Compound 13]
y

Does the reported GAA FP% (residual FP-signal) for OC[C@@H]1[C@@H](O)[C@H](O)[C@@H](O)CN1CCCCCOCc1cc2ccccc2c2ccccc12 [Compound 15] fall at or above the 0.9% mark?
y

Has OC[C@@H]1[C@@H](O)[C@H](O)[C@@H](O)CN1CCCCCOCc1ccc(-c2ccccc2F)cc1 [#ID 330] a recorded GAA FP% (residual FP-signal) greater than or equal to 0.9%?
n

State whether the measured GAA FP% (residual FP-signal) reaches 0.9%, counting equality as reaching it, for OC[C@H]1N[C@H](C/C=C/CCOCC23CC4CC(CC(C4)C2)C3)[C@H](O)[C@@H](O)[C@@H]1O [#ID 159]
y

Quick check: does OC[C@@H]1[C@@H](O)[C@H](O)[C@@H](O)CN1CCCCCOCc1ccc(-c2ccc3c(c2)OCO3)cc1 [#ID 303] have GAA FP% (residual FP-signal) greater than or equal to 0.9%?
n

Dear colleague, could you confirm whether OC[C@H]1N[C@H](CCCCCOCC23CC4CC(CC(C4)C2)C3)[C@H](O)[C@@H](O)[C@@H]1O [Compound 14] has GAA FP% (residual FP-signal) at or above 0.9%?
y
